experimental-protocol: Oral bioavailability in dog
Format: ADME, organism-based, Canis lupus familiaris
condition-context: in vivo
reported-metric: bioavailability (%)
Write it as a number; the unit % goes unstated.

NCc1ccc2c(c1)nc(CN1C(=O)C3(CC3)c3ccc(F)cc31)n2CCCC(F)(F)F [SISUNATOVIR]	63

molecule Cc1ccc([C@]23Cn4cccc4C(=O)N2CCN3C(=O)c2conc2C)cn1 , bioavailability observed: 100

====

experimental-protocol: Antiviral activity against Respiratory syncytial virus B plaque reduction assay
Format: functional, Human respiratory syncytial virus B
reported-metric: EC50

compound NCc1ccc2c(c1)nc(CN1C(=O)C3(CC3)c3ccc(F)cc31)n2CCCC(F)(F)F , EC50 observed: 0.1 to 1.4 nM
